Below, each entry is listed alongside its reported IC50.
System: 777334-354-R2-J4-PDC tumor spheroids with HUVEC/MSC, viability;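 note: spheroids exposed to compounds for 7 days before readout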
Experiment Description: Anticancer human tumor 777334-354-R2-J4-PDC patient-derived pancreatic adenocarcinoma cell line growth inhibition [GQUAD]
Experimental Conditions: curve of first compound; second compound 1 µM

Guide cases for IC50, answers given:
Molecule | Tested System | IC50
O=C(c1cc(Cc2n[nH]c(=O)c3ccccc23)ccc1F)N1CCN(C(=O)C2CC2)CC1 + Cc1cnc(CNC(=O)c2c(=O)c3ccc(N4CCCN(C)CC4)nc3n3c2sc2ccccc23)cn1 | 777334-354-R2-J4-PDC tumor spheroids with HUVEC/MSC, viability | > 10 µM
O=c1[nH]cc(F)c(=O)[nH]1 + Cc1[nH]c2ccc(F)cc2c1-c1nc2c3cccnc3c3ncccc3c2[nH]1 | 777334-354-R2-J4-PDC tumor spheroids with HUVEC/MSC, viability | > 10 µM

Consider the additional molecule presented here.
**Query** Read off the recorded IC50 for Cn1ncnc1[C@H]1c2n[nH]c(=O)c3cc(F)cc(c23)N[C@@H]1c1ccc(F)cc1 + Cc1[nH]c2ccc(F)cc2c1-c1nc2c3cccnc3c3ncccc3c2[nH]1
**Result** > 0.316 µM
